experiment: Single ascending dose study of Compound 2 in GT1-HCV infected patients (Part B): safety, tolerability, pharmacokinetic; type: in vivo, human; details: human, in vivo, 100 mg, GT1-HCV infected patients; Compound 2 100 mg; mean±SD

{"columns": ["SMILES", "half-life (min)"],
 "data": [
  ["CNc1nc(N)nc2c1ncn2[C@@H]1O[C@H](CO[P@@](=O)(N[C@@H](C)C(=O)OC(C)C)Oc2ccccc2)[C@@H](O)[C@@]1(C)F", 32.4]
]}

====

experiment: Single ascending dose study of Compound 2 in healthy volunteers (Part A): safety, tolerability, pharmacokinetic; type: in vivo, human; conditions: both sexes, human, plasma, oral, 50 mg

{"columns": ["COMPOUND", "AUC"],
 "data": [
  ["C[C@@]1(F)[C@H](O)[C@@H](CO)O[C@H]1n1cnc2c(=O)[nH]c(N)nc21 [Metabolite 1-7]", "285 ng·h/mL"]
]}

====

experiment: Single ascending dose study of Compound 2 in GT1-HCV infected patients (Part B): safety, tolerability, pharmacokinetic; format: in vivo, human; settings: human, in vivo, 600 mg, GT1-HCV infected patients; Compound 2 600 mg; mean±SD
Catalogue of AUC values

{"columns": ["COMPOUND", "MEASUREMENT UNITS", "AUC"],
 "data": [
  ["CNc1nc(N)nc2c1ncn2[C@@H]1O[C@H](CO[P@@](=O)(N[C@@H](C)C(=O)OC(C)C)Oc2ccccc2)[C@@H](O)[C@@]1(C)F [Compound 1]", "ng·h/mL", 4130],
  ["C[C@@]1(F)[C@H](O)[C@@H](CO)O[C@H]1n1cnc2c(=O)[nH]c(N)nc21 [Metabolite 1-7]", "ng·h/mL", 2180]
]}

====

test: Single ascending dose study of Compound 2 in GT1-HCV infected patients (Part B): safety, tolerability, pharmacokinetic; format: in vivo, human; conditions: human, in vivo, 300 mg, GT1-HCV infected patients; Compound 2 300 mg (second 300 mg line); mean±SD
MEASURED PROPERTY: half-life (min)

{"columns": ["SMILES", "RECORDED MEASUREMENT"],
 "data": [
  ["CNc1nc(N)nc2c1ncn2[C@@H]1O[C@H](CO[P@@](=O)(N[C@@H](C)C(=O)OC(C)C)Oc2ccccc2)[C@@H](O)[C@@]1(C)F", 50.4]
]}

====

assay: Single ascending dose study of Compound 2 in healthy volunteers (Part A): safety, tolerability, pharmacokinetic; type: in vivo, human; details: both sexes, human, in vivo, 200 mg

{"columns": ["SMILES", "Tmax [min]"],
 "data": [
  ["CNc1nc(N)nc2c1ncn2[C@@H]1O[C@H](CO[P@@](=O)(N[C@@H](C)C(=O)OC(C)C)Oc2ccccc2)[C@@H](O)[C@@]1(C)F", 30]
]}

====

test: Plasma levels of metabolites following single oral doses of Compound 2, dogs; assay type: in vivo, dog; settings: dog, plasma, po, 100 mg/kg

{"columns": ["SMILES", "Tmax"],
 "data": [
  ["CNc1nc(N)nc2c1ncn2[C@@H]1O[C@H](CO[P@@](=O)(N[C@@H](C)C(=O)OC(C)C)Oc2ccccc2)[C@@H](O)[C@@]1(C)F", "30 to 60 min"]
]}

====

experiment: Single ascending dose study of Compound 2 in healthy volunteers (Part A): safety, tolerability, pharmacokinetic; type: in vivo, human; settings: both sexes, human, in vivo, 50 mg

{"columns": ["COMPOUND", "Tmax [min]"],
 "data": [
  ["CNc1nc(N)nc2c1ncn2[C@@H]1O[C@H](CO[P@@](=O)(N[C@@H](C)C(=O)OC(C)C)Oc2ccccc2)[C@@H](O)[C@@]1(C)F [Compound 1]", 30]
]}

// data source = patent US20210087217A1
